MEASURED_TARGET: Sigma intracellular receptor 2 (Rattus norvegicus, UniProt Q5U3Y7)
Sequence (Q5U3Y7 whole entry): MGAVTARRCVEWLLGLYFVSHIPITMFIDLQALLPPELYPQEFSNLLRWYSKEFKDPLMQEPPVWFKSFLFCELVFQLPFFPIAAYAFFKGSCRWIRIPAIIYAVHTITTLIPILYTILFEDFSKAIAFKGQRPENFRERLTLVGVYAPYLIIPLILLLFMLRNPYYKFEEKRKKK
TEST_DETAILS: Displacement of [3H]DTG from sigma2 receptor in rat liver membranes after 120 mins by scintillation counting method
ATTRIBUTE_MEASURED: pKi
Conceptually, pKi converts a concentration in mol/L into minus its log10.

CCCCN1CCN(C(=O)Cc2ccc(Cl)c(Cl)c2)[C@@H]2[C@@H](N3CCCC3)CCC[C@@H]21 (racemic) ... 5.89

In: Sample CCCN1CCN(C(=O)Cc2ccc(Cl)c(Cl)c2)[C@@H]2[C@@H](N3CCCC3)CCC[C@@H]21 (racemic) — what was its pKi?
Out: 5.62
